The measurements presented in this section are drawn from paper PMC8600679.

# measurementTarget: UniProt A0A6H1Z3G8
# measurementDescription: cell-based
# assayContext: Ahr2a EC50 (nM), COS-7 cells, 24 h exposure
quantityKind: log10 of EC50 (log10 of the value in nM)

| molecule | measurementTarget | numericValue |
| --- | --- | --- |
| Oc1cccc2c1ccc1c3ccccc3ccc21 | UniProt A0A6H1Z3G8 | 2.80 |
| Clc1cc2c(cc1Cl)Oc1cc(Cl)c(Cl)cc1O2 [TCDD, 2,3,7,8-Tetrachlorodibenzo-p-dioxin, reference compound] | UniProt A0A6H1Z3G8 | 0.79 |
| Oc1ccc2c(ccc3c4ccccc4ccc23)c1 | UniProt A0A6H1Z3G8 | 2.58 |
| Cc1cccc2c1ccc1c3ccccc3ccc21 | UniProt A0A6H1Z3G8 | 2.24 |
| c1ccc2c(c1)cc1ccc3cccc4ccc2c1c34 [BAP, Benzo[a]pyrene] | UniProt A0A6H1Z3G8 | 0.83 |

====

# measurementTarget: Atlantic cod Ahr1a (Gadus morhua, UniProt A0A6H1Z2L5)
# Sequence (A0A6H1Z2L5 1-957): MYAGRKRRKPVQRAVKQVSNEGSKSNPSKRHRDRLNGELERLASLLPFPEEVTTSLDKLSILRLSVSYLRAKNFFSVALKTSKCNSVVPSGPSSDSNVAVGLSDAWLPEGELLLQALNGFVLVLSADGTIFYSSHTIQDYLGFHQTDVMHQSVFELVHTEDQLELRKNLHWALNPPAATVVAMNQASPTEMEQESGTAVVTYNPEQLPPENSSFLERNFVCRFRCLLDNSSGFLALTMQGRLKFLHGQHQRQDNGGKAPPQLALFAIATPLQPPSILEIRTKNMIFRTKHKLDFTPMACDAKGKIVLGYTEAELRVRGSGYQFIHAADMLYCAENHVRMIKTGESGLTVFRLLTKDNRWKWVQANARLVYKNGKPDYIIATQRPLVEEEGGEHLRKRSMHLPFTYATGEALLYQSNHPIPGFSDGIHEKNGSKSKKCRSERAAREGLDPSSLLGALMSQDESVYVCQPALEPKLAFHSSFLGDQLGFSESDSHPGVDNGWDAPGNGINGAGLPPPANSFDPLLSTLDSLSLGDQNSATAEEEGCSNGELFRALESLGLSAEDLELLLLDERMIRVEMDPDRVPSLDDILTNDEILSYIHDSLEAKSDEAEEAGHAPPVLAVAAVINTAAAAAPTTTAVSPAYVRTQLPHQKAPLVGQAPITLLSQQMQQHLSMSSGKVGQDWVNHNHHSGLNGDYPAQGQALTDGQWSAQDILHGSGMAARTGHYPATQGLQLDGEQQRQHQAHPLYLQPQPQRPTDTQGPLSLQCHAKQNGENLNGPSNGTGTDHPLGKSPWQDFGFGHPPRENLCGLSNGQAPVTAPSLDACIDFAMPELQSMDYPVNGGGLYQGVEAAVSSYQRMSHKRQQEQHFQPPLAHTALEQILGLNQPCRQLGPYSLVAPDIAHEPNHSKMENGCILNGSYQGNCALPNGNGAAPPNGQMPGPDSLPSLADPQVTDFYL
# Sequence (A0A8C5CZZ9 1-645 partner): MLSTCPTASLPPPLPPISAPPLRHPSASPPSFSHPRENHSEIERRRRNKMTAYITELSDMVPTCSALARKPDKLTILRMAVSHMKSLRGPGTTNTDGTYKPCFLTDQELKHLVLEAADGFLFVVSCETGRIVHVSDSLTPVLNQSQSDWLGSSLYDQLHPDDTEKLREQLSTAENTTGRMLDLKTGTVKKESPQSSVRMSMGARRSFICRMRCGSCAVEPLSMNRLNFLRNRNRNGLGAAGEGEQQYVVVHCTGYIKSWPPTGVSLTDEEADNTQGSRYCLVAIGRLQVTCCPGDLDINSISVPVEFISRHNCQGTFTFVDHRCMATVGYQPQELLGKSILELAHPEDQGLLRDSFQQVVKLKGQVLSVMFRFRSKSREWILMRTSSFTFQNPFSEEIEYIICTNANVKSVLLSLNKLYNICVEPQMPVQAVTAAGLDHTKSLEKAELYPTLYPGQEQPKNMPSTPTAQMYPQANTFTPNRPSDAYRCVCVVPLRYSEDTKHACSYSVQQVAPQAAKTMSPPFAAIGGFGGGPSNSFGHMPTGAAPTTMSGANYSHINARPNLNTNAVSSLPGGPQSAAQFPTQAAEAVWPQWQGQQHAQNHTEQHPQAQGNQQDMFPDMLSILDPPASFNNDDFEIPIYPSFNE
# measurementDescription: cell-based
# assayContext: Potency (EC50, nM) Ahr1a, Supplementary Table S5

| chemicalSmiles | EC50 / nM |
| --- | --- |
| Oc1ccc2c(ccc3c4ccccc4ccc23)c1 | 324 |
| Oc1cccc2c1ccc1c3ccccc3ccc21 | 485 |

====

# measurementTarget: Atlantic cod Ahr2a (Gadus morhua, UniProt A0A6H1Z3G8)
# Sequence (A0A6H1Z3G8 1-1127): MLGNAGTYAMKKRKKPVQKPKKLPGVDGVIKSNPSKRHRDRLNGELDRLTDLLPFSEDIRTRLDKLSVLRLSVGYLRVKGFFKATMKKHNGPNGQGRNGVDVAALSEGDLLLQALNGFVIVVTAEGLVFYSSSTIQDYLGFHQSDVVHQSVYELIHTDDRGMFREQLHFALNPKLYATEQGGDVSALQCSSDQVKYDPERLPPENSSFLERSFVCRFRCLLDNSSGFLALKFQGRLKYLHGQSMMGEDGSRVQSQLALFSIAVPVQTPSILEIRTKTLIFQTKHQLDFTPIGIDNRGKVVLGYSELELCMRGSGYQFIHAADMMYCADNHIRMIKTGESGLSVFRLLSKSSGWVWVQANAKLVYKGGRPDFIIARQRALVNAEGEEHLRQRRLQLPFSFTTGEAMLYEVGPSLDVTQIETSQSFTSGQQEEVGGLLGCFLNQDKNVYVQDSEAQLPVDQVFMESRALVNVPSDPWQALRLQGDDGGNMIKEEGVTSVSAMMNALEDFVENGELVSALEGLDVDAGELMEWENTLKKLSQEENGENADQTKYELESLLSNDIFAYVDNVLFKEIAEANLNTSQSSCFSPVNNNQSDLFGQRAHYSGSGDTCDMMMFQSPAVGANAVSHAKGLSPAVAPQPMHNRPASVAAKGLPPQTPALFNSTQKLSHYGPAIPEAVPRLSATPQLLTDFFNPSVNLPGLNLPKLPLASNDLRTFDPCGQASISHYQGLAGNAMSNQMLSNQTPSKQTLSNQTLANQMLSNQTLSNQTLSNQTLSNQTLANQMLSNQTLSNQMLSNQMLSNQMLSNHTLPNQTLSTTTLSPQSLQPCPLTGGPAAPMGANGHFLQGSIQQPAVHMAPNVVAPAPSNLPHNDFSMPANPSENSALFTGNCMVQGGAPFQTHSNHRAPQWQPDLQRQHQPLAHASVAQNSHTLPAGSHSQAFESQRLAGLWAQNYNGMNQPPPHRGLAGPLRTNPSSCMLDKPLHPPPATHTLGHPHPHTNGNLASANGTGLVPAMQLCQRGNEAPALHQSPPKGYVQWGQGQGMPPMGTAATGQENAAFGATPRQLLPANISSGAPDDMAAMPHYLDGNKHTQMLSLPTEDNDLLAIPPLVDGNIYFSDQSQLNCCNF
# measurementDescription: cell-based
# assayContext: EC25 of TCDD divided by concentration of PAC giving 25% of TCDD response
The following ranges of Ahr2a REP25 define the classes used here: low interval = under 0.004, middle interval = from 0.004 up to 0.02, high interval = 0.02 and over

| compound | assignedLabel |
| --- | --- |
| O[C@@H]1C=Cc2c(ccc3ccccc23)[C@H]1O [R,R-1,2-DHP, (1R,2R)-1.2-Dihydrophenanthrene-1,2-diol] | low interval |
| Oc1cccc2c1ccc1c3ccccc3ccc21 | middle interval |
| Cc1cc2ccccc2c2ccc3ccccc3c12 | high interval |
| Cc1ccc2ccc3c4ccccc4ccc3c2c1 | high interval |
| Oc1ccc2c(ccc3c4ccccc4ccc23)c1 | low interval |
| Oc1ccc2ccc3c4ccccc4ccc3c2c1 | middle interval |
| COc1cc2ccc3c4ccccc4ccc3c2cc1OC | middle interval |
| Cc1cc2c3ccccc3ccc2c2ccccc12 | low interval |
| Oc1cccc2ccc3c4ccccc4ccc3c12 | low interval |
| Cc1cccc2ccc3c4ccccc4ccc3c12 | high interval |
| O[C@@H]1C=Cc2ccccc2[C@H]1O [R,R-1,2-DHN, (1R,2R)-1.2-Dihydronaphthalene-1,2-diol] | low interval |
| COc1cccc2c1ccc1c3ccccc3ccc21 | high interval |
| COc1cccc2ccc3c4ccccc4ccc3c12 | high interval |
| Cc1cccc2c1ccc1c3ccccc3ccc21 | high interval |
| COc1ccc2ccc3c4ccccc4ccc3c2c1 | high interval |

====

# measurementTarget: Atlantic cod Ahr1a (Gadus morhua)
# measurementDescription: cell-based
# assayContext: COS-7 cells, 24 h exposure; read-out: Ahr1a EC50
quantityKind: EC50 (nM)

| compound | numericValue |
| --- | --- |
| Oc1cccc2ccc3c4ccccc4ccc3c12 [4-COH, Chrysene-4-ol] | 1340 |
| COc1cccc2ccc3c4ccccc4ccc3c12 [4-MOC, 4-Methoxychrysene] | 43.8 |
| Cc1ccc2c(ccc3c4ccccc4ccc23)c1 [2-MC, 2-Methylchrysene] | 22 |
| COc1ccc2c(ccc3c4ccccc4ccc23)c1 [2-MOC, 2-Methoxychrysene] | 13 |
| c1ccc2c(c1)ccc1c3ccccc3ccc21 [CHR, Chrysene] | 481 |
| Cc1cc2ccccc2c2ccc3ccccc3c12 [5-MC, 5-Methylchrysene] | 596 |

====

# measurementTarget: Atlantic cod Ahr2a (Gadus morhua, UniProt A0A6H1Z3G8)
# Sequence (A0A6H1Z3G8 1-1127): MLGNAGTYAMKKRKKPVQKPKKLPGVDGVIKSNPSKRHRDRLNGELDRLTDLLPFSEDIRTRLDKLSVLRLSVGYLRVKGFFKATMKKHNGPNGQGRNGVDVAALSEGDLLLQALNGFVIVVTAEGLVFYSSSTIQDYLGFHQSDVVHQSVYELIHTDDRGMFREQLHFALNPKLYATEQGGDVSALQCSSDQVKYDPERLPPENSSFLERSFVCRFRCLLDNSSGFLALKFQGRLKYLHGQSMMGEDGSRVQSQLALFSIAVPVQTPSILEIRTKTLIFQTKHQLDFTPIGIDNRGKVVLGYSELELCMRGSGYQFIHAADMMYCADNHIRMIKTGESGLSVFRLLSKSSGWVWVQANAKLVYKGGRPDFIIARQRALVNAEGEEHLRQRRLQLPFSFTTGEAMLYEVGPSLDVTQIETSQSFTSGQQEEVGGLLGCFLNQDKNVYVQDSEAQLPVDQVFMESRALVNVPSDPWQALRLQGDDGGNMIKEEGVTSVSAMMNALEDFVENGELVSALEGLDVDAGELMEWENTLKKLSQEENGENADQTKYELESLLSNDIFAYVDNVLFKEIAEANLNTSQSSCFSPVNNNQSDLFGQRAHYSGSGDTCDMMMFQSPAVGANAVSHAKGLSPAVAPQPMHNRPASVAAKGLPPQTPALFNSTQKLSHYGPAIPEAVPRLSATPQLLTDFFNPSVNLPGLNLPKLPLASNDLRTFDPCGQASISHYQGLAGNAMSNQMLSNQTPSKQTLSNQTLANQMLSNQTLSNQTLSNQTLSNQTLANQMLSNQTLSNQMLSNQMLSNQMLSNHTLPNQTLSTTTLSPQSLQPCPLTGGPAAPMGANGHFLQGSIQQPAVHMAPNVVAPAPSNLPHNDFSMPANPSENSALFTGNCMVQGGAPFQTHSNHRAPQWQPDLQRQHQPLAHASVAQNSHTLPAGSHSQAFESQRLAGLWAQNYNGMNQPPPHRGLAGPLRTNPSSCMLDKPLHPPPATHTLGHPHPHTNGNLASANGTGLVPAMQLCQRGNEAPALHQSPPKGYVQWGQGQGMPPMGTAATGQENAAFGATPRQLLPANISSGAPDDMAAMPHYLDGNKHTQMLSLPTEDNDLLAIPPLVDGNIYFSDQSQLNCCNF
# measurementDescription: cell-based
# assayContext: Supplementary Table S5; read-out: Potency (EC50, nM) Ahr2a
quantityKind: log10 EC50 (log10 of the value in nM)

| chemicalSmiles | log10 EC50 |
| --- | --- |
| Oc1ccc2ccc3c4ccccc4ccc3c2c1 | 2.44 |
| Oc1cccc2ccc3c4ccccc4ccc3c12 | 4.04 |
| Cc1cccc2ccc3c4ccccc4ccc3c12 | 2.11 |
| Cc1cc2c3ccccc3ccc2c2ccccc12 | 1.95 |
| c1ccc2c(c1)ccc1c3ccccc3ccc21 | 3.54 |
| COc1cc2ccc3c4ccccc4ccc3c2cc1OC | 2.56 |
| COc1cccc2c1ccc1c3ccccc3ccc21 | 2.20 |
| Cc1cc2ccccc2c2ccc3ccccc3c12 | 2.29 |
